assayed_system: 85/88 kDa calcium-independent phospholipase A2 (Homo sapiens)
assay_explanation: Inhibition of N-terminal 6xHis-tag human group VIA calcium-independent PLA2 expressed in fall armyworm sf9 cells at 0.091 mol fraction using PAPC/arachidonyl-1-14C PAPC as substrate by mixed micelle modified Dole assay
measure_name: inhibition (%)
Form entry: value (%) — number only.

Example entries and their recorded answers appear below.
INSERT INTO results (compound, measure_name, units_of_measure, observed_value) VALUES
  ('CCCCCCCCS(=O)(=O)CC(O)(O)C(F)(F)F', 'inhibition', '%', 82),
  ('O=C(CSCCc1ccccc1)C(F)(F)F', 'inhibition', '%', 100),
  ('O=C(CSc1ccc([N+](=O)[O-])cc1)C(F)(F)F', 'inhibition', '%', 52);

Ask: Recall the reported inhibition of `CCCCCCCCCCCCSCC(=O)C(F)(F)F` when tested on 85/88 kDa calcium-independent phospholipase A2 (Homo sapiens).
Result: 97

Ask: Recall the reported inhibition of `O=C(CSc1ccc(F)cc1)C(F)(F)F` when tested on 85/88 kDa calcium-independent phospholipase A2 (Homo sapiens).
Result: 46

Ask: Recall the reported inhibition of `O=C(CSc1ccc(Cl)cc1)C(F)(F)F` when tested on 85/88 kDa calcium-independent phospholipase A2 (Homo sapiens).
Result: 95

Ask: Recall the reported inhibition of `CCCCCCOCC(=O)C(F)(F)F` when tested on 85/88 kDa calcium-independent phospholipase A2 (Homo sapiens).
Result: 99

Ask: Recall the reported inhibition of CCCCCCCCCCCCS(=O)(=O)CC(O)C(F)(F)F (stereo unspecified) when tested on 85/88 kDa calcium-independent phospholipase A2 (Homo sapiens).
Result: 32

Ask: Recall the reported inhibition of `O=C(c1ccc(C2CCCCC2)s1)C(F)(F)F` when tested on 85/88 kDa calcium-independent phospholipase A2 (Homo sapiens).
Result: 39

Ask: Recall the reported inhibition of `CCCCCCCCCCCCS(=O)(=O)CC(O)(O)C(F)(F)F` when tested on 85/88 kDa calcium-independent phospholipase A2 (Homo sapiens).
Result: 52

Ask: Recall the reported inhibition of `O=C(CSc1ccc(Br)cc1)C(F)(F)F` when tested on 85/88 kDa calcium-independent phospholipase A2 (Homo sapiens).
Result: 97

Ask: Recall the reported inhibition of `O=C(CSc1ccccc1)C(F)(F)F` when tested on 85/88 kDa calcium-independent phospholipase A2 (Homo sapiens).
Result: 89

Ask: Recall the reported inhibition of `COc1ccc(SCC(=O)C(F)(F)F)cc1` when tested on 85/88 kDa calcium-independent phospholipase A2 (Homo sapiens).
Result: 93

Ask: Recall the reported inhibition of `O=C(CSc1c(Cl)cccc1Cl)C(F)(F)F` when tested on 85/88 kDa calcium-independent phospholipase A2 (Homo sapiens).
Result: 99

Ask: Recall the reported inhibition of CCCCCCOCC(O)C(F)(F)F (stereo unspecified) when tested on 85/88 kDa calcium-independent phospholipase A2 (Homo sapiens).
Result: 43

Ask: Recall the reported inhibition of `CCCCSCC(=O)C(F)(F)F` when tested on 85/88 kDa calcium-independent phospholipase A2 (Homo sapiens).
Result: 91

Ask: Recall the reported inhibition of `O=C(C[Se]c1ccccc1)C(F)(F)F` when tested on 85/88 kDa calcium-independent phospholipase A2 (Homo sapiens).
Result: 46

====

assayed_system: 85/88 kDa calcium-independent phospholipase A2 (Homo sapiens)
Sequence (whole entry): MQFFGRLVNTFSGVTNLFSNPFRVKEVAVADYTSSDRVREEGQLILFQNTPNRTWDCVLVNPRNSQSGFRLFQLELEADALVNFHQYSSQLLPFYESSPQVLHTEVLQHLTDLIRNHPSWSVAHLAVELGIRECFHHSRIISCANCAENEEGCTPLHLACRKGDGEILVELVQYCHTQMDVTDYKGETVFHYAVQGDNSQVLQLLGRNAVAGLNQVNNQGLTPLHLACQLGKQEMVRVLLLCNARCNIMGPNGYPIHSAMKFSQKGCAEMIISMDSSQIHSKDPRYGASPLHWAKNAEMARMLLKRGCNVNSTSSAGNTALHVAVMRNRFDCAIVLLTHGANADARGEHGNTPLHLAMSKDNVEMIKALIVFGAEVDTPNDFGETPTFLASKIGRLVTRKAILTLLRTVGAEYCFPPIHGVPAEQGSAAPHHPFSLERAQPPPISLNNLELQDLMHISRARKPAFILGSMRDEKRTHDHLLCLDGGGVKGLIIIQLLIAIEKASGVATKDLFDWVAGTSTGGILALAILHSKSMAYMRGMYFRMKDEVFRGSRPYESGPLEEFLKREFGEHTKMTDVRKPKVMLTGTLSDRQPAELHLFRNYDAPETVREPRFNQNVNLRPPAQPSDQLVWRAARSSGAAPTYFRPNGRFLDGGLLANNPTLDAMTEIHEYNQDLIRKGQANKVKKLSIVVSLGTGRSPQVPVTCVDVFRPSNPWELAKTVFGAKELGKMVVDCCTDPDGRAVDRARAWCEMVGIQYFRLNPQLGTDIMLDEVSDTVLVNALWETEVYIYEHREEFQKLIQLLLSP
assay_explanation: Inhibition of N-terminal 6xHis-tag human group VIA calcium-independent PLA2 expressed in fall armyworm sf9 cells using PAPC/arachidonyl-1-14C PAPC as substrate by mixed micelle modified Dole assay
measure_name: XI50 (mole fraction)

INSERT INTO measurements (structure_smiles, observed_value) VALUES
  ('O=C(CSCCc1ccccc1)C(F)(F)F', 0.00059),
  ('CCCCCCSCC(=O)C(F)(F)F', 0.00052),
  ('O=C(CSc1ccc(Cl)cc1)C(F)(F)F', 0.011),
  ('CCCCCCOCC(=O)C(F)(F)F', 0.006),
  ('CCCCCCCCCCCCSCC(=O)C(F)(F)F', 0.0043),
  ('O=C(CSc1c(Cl)cccc1Cl)C(F)(F)F', 0.0049);

Ask: Recall the reported XI50 (mole fraction) of `O=C(CSc1cccc(Cl)c1)C(F)(F)F` when tested on 85/88 kDa calcium-independent phospholipase A2 (Homo sapiens).
Result: 0.011

Ask: Recall the reported XI50 (mole fraction) of `COc1ccc(SCC(=O)C(F)(F)F)cc1` when tested on 85/88 kDa calcium-independent phospholipase A2 (Homo sapiens).
Result: 0.011

Ask: Recall the reported XI50 (mole fraction) of `CCCCSCC(=O)C(F)(F)F` when tested on 85/88 kDa calcium-independent phospholipase A2 (Homo sapiens).
Result: 0.07

Ask: Recall the reported XI50 (mole fraction) of `CCCCCCCCCCCSCC(=O)C(F)(F)F` when tested on 85/88 kDa calcium-independent phospholipase A2 (Homo sapiens).
Result: 0.0007

Ask: Recall the reported XI50 (mole fraction) of `Cc1ccc(SCC(=O)C(F)(F)F)cc1` when tested on 85/88 kDa calcium-independent phospholipase A2 (Homo sapiens).
Result: 0.009

Ask: Recall the reported XI50 (mole fraction) of `O=C(CSc1ccc(Br)cc1)C(F)(F)F` when tested on 85/88 kDa calcium-independent phospholipase A2 (Homo sapiens).
Result: 0.0071

Ask: Recall the reported XI50 (mole fraction) of `CCCCCCCCCCSCC(=O)C(F)(F)F` when tested on 85/88 kDa calcium-independent phospholipase A2 (Homo sapiens).
Result: 0.00041

====

Catalogue of compounds with associated pXI50
assayed_system: 85/88 kDa calcium-independent phospholipase A2 (Homo sapiens) (UniProt O60733)
assay_explanation: Inhibition of N-terminal 6xHis-tag human group VIA calcium-independent PLA2 expressed in fall armyworm sf9 cells at 0.091 mol fraction using PAPC/arachidonyl-1-14C PAPC as substrate by mixed micelle modified Dole assay
Reply with just the number.

Example entries and their recorded answers appear below.
INSERT INTO measurements (structure_smiles, observed_value) VALUES
  ('Cc1ccc(SCC(=O)C(F)(F)F)cc1', 2.1),
  ('CCCCCCCCCCCSCC(=O)C(F)(F)F', 3.2),
  ('CCCCCCCCSCC(=O)C(F)(F)F', 3.7),
  ('O=C(CSc1cccc(Cl)c1)C(F)(F)F', 2),
  ('O=C(CSc1c(Cl)cccc1Cl)C(F)(F)F', 2.3);

Ask: Recall the reported pXI50 of `CCCCSCC(=O)C(F)(F)F` when tested on 85/88 kDa calcium-independent phospholipase A2 (Homo sapiens) (UniProt O60733).
Result: 1.2

====

assayed_system: Cytosolic phospholipase A2 (Homo sapiens)
Sequence (whole entry): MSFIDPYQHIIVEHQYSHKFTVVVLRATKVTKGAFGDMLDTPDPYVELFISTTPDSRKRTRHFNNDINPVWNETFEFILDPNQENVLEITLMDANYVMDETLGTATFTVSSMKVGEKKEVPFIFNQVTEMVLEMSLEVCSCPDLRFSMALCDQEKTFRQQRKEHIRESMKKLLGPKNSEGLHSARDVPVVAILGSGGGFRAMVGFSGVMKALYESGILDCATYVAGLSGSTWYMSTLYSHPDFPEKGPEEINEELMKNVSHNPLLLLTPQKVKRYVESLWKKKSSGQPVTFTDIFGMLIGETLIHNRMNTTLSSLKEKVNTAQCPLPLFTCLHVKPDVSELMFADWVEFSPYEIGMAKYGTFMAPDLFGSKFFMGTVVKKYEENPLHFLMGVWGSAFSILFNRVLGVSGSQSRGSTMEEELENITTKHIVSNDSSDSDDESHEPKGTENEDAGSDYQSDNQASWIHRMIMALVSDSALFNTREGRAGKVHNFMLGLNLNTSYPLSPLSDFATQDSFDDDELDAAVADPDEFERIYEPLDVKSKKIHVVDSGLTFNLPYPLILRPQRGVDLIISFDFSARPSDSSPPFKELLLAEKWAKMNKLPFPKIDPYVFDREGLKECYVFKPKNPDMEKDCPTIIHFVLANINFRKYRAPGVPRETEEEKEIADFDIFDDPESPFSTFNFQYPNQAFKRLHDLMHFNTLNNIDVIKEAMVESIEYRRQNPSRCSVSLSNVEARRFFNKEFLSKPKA
assay_explanation: Inhibition of C-terminal 6xHis-tagged human group IVA cytosolic PLA2 expressed in fall armyworm sf9 cells at 0.091 mol fraction using PAPC/arachidonyl-1-14C PAPC as substrate by mixed micelle modified Dole assay
measure_name: inhibition (%)
Form entry: value (%) — number only.

INSERT INTO results (compound, measure_name, observed_value) VALUES
  ('CCCCCCCCSCC(=O)C(F)(F)F', 'inhibition', 82),
  ('CCCCSCC(=O)C(F)(F)F', 'inhibition', 46);

Ask: Supply inhibition value. Item: `O=C(CSc1ccc(Br)cc1)C(F)(F)F`
Result: 82

Ask: Supply inhibition value. Item: `CCCCCCCCCCCSCC(=O)C(F)(F)F`
Result: 98

Ask: Supply inhibition value. Item: `O=C(C[Se]c1ccccc1)C(F)(F)F`
Result: 18

Ask: Supply inhibition value. Item: `COc1ccc(SCC(=O)C(F)(F)F)cc1`
Result: 70

Ask: Supply inhibition value. Item: `O=C(CSc1ccccc1)C(F)(F)F`
Result: 75

Ask: Supply inhibition value. Item: CCCCCCOCC(O)C(F)(F)F (configuration not stated)
Result: 58

Ask: Supply inhibition value. Item: CCCCCCS(=O)(=O)CC(O)C(F)(F)F (configuration not stated)
Result: 5

Ask: Supply inhibition value. Item: `O=C(CSc1ccc(Cl)cc1)C(F)(F)F`
Result: 82

Ask: Supply inhibition value. Item: `O=C(c1ccc(C2CCCCC2)s1)C(F)(F)F`
Result: 60

Ask: Supply inhibition value. Item: `CCCCCCSCC(=O)C(F)(F)F`
Result: 77

Recorded values, source ChEMBL document CHEMBL4431314.
